Values compiled from patent US20250147035A1.

EXPERIMENTAL_SYSTEM: T1, pSAKLDEESILKQ-Biotin
T1 peptide: [pS]AKLDEESILKQ-{Biotin′}
EXPERIMENT_DESCRIPTION: Octet (BLI), fixed reagent concentration;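 note: octet binding of candidate PTM-specific affinity reagents, each at one fixed concentration, to biotinylated phospho-Thr or phospho-Ser peptides, with unmodified biotinylated peptides serving as controls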
Primed or numbered codes have the meaning given here. Where no end group is shown, it is not given here. [ ]: non-standard residue; d: D form. pS = N[C@@H](COP(=O)(O)O)C(=O)O; Biotin′ = not defined here
REPORTED_METRIC: Octet binding assay response
Numbers only.

PM12 (Mycobacterium tuberculosis/FhaA) (other) MGSAGTSVTLQLDDGSGRTYQLREGSNIIGRGQDAQFRLPDTGVSRRHLEIRWDGQVALLADLNSTNGTTVNNAPVQEWQLADGDVIRLGHSEIIVRMH = 0.7

Now look at this entry.
Lookup: Any idea what its Octet binding assay response is? The binder is PM10 (Human/MCPH1) (other) MSGRGKKPTRTLVMTSMPSEKQNVVIQVVDKLKGFSIAPDVCETTTHVLSGKPLRTLNVLLGIARGCWVLSYDWVLWSLELGHWISEEPFELSHHFPAAPLCRSECHLSAGPYRGTLFADQPAMFVSPASSPPVAKLCELVHLCGGRVSQVPRQASIVIGPYSGKKKATVKYLSEKWVLDSITQHKVCAPENYLLSQ
Found: 0.3
